Entries annotated with measured TGI
Tested on: HOP-18 NSCLC
Method: NCI tumour cell line growth inhibition, 48 h

Bench note, HOP-18 NSCLC: entry CC(CC(=O)Nc1ccc(NC(=O)CC(C)N=NC(N)=O)cc1)N=NC(N)=O (configuration not stated) , its TGI = > 100 µM

// compound CN(C)C(=S)/N=c1\ss/c(=N\S(=O)(=O)c2ccccc2)n1C , assay HOP-18 NSCLC, TGI value: > 100 µM

The value of TGI recorded for C[C@H]1CCC2C(OC(=O)[C@@H]2CN(C)C)[C@]2(C)C(=O)C=CC12O (some centres not stated) when tested on HOP-18 NSCLC reads 38.9 µM

* * *

Each entry below carries its recorded TGI.
Tested on: OVCAR-5 ovarian
Method: NCI tumour cell line growth inhibition, 48 h
Where a SMILES comes first, the peptide text is derived from it. [ ]: non-standard residue; d: D form. The star is where a group is joined. Cbz = O=C(OCc1ccccc1)*; Aib = CC(C)(N)C(=O)O

Entry Cc1nc2sc(C(=O)Nc3ccccc3)c(N)c2cc1C(=O)c1ccccc1 , tested on OVCAR-5 ovarian, has a reported TGI of > 50 µM

Known value: OVCAR-5 ovarian TGI of the compound O=C1/C(=C/c2ccc(O)cc2)Oc2ccccc21 equals > 100 µM

# value of TGI, OVCAR-5 ovarian, item O=c1[nH]c2ccc(C(F)(F)F)cc2nc1C(F)(F)F = > 100 µM

Reading of TGI for CC(C)(NC(=O)C(C)(C)NC(=O)OCc1ccccc1)C(=O)O (Cbz-[Aib]-[Aib]-OH) with OVCAR-5 ovarian: > 100 µM

O=C(Cn1c(=O)oc2ccc(C(=O)c3cccc(Cl)c3)cc21)c1ccccc1 tested on OVCAR-5 ovarian gave TGI: > 100 µM

Record for C1CC[N-]CC1.CC(=N\O)/C(C)=N/O.CC(=N\O)/C(C)=N/O.C[CH-]C(C)O.[Co+2] under target or system OVCAR-5 ovarian: TGI reported as > 100 µM

// below: TGI requested for another compound
Bench note, OVCAR-5 ovarian: entry C[C@H]1CC[C@@H]2[C@@H](C)[C@H]3[C@H](C[C@H]4[C@@H]5CC=C6C[C@@H](O)CC[C@]6(C)[C@H]5CC[C@]34C)N2C1 , its TGI = > 100 µM

* * *

Catalogue of TGI readings, one per entry.
Test system: K-562 leukemia
Method: NCI tumour cell line growth inhibition, 48 h

Per the records, this compound ( Cc1nccn1S(=O)(=O)c1ccc(Cl)cc1 ) has TGI equal to > 100 µM

Lookup result for C=CCO[C@H]1CC[C@@]2(C)C(CC[C@]3(C)C2CC=C2[C@@H]4[C@@H](C)C(C)CC[C@]4(C(=O)O)CCC23C)C1(C)C (stereo partly drawn) ; measured TGI: 28.6 µM

According to the records, this compound CSc1c(C)n([O-])c2cc(Cl)c(Cl)cc2[n+]1=O displays TGI of 11.1 µM

Record COc1cc(-c2nc(SC)nc3c2CCc2ccccc2-3)cc(OC)c1OC . Reported TGI: 79.2 µM

Please fill in: TGI reported for COC(=O)C(=O)C(C#N)c1c(Cl)cccc1Cl (stereo not drawn) = > 100 µM

Record COC(=O)C(C)Oc1ccc(O)cc1 (stereo not drawn) , field TGI: > 100 µM

response.value for CCOC(=O)C1=C(C)N(Cc2ccccc2)C2(O)C(OC)CC(=O)C3C(=O)N(c4ccccc4)C(=O)C132 (stereo not drawn) (field: TGI) = > 100 µM

Per the records, this compound ( CNC(=O)c1cc(-c2ccc(F)cc2)cc(-c2ccc(S(=O)(=O)N3CCCC3)cc2)c1N ) has TGI equal to > 25 µM

// field: TGI; key: CC1=NN2CCC(=O)N=C2S1 ; value = > 100 µM

Form field TGI, entry COC(=N)CCCl : > 100 µM

In plain terms, C=CCCC(=O)CC(=O)OCc1ccccc1 has a documented TGI of > 100 µM

compound CCOC(=O)C1CCCN1C(=O)c1ccccc1Cl (stereo not drawn) , TGI observed: > 100 µM

TGI reading for N#Cc1c(N2CCCC2)nsc1Nc1ccccc1 : > 100 µM

For CC(=O)[O][Hg][c]1s[c]([Hg][O]C(C)=O)[c]([Hg][O]C(C)=O)[c]1[Hg][O]C(C)=O the compound record lists TGI as 18.8 µM

Sample COc1ccc2c(c1)[nH]c1c3ccc(OC)cc3oc(=O)c21 ; TGI observed: > 100 µM

Field TGI (entry C=C1CC(O)C2C(=C)C(=O)OC2C2C(C)C(=O)CC12 (stereo not drawn) ) reads 28.7 µM

Documented TGI of CC1=CC(=O)N2C(OC[C@@H]2c2ccccc2)O1 (stereo partly drawn) : > 100 µM

So, CC(=O)c1c(O)cc(O)c(-c2c(C)cc(O)c3c2C(=O)c2cccc(O)c2C3=O)c1O ? Its TGI was 62.6 µM

Kindly note the recorded TGI for O=C1c2cc3ncsc3cc2C(=O)c2c(O)ccc(O)c21 , which is > 100 µM

* * *

Tested on: A498 renal
Method: NCI tumour cell line growth inhibition, 48 h
Measured Property: TGI (µM)
Only the number, expressed in µM, is required.

Some compounds with known TGI results, for comparison:
The value of TGI measured for the compound Cn1cc(-c2csc(-c3cn(C(=O)OC(C)(C)C)c4ccccc34)n2)c2cccnc21 turned out to be 14.4

Lookup result for N#Cc1cc2c(cc1Cl)SC(=Nc1ccccc1)N(S(=O)(=O)c1ccc(Br)s1)S2(=O)=O ; measured TGI: 38

Reported TGI of N#C/C(=C1\OC(N)=C(c2ccc(Cl)cc2)C1=O)c1ccc(Cl)cc1 : 31.1

Please find the next compound below.
Entry under test: CN(C)CCOc1ccc2c(c1)C(=O)/C(=C\c1ncc([N+](=O)[O-])n1C)C2 . Its TGI was 0.931

* * *

Tested on: RXF-631 renal
Method: NCI tumour cell line growth inhibition, 48 h
Measured Property: TGI

See these solved cases before continuing.
Entry COC(=O)Nc1nc2ccc(C(=O)c3cccs3)cc2[nH]1 — recorded TGI = > 61.8 µM

Lookup result for C[C@H]1CCC2C(OC(=O)[C@@H]2CN(C)C)[C@]2(C)C(=O)C=CC12O (stereo partly specified) ; measured TGI: 3.11 µM

Lookup result for Cc1cc(OCC(O)CO)ccc1Cl (stereo unspecified) ; measured TGI: > 100 µM

Reported TGI ( CCN1CCC(O)(/C=C/c2ccccc2)C(C(=O)/C=C/c2ccccc2)C1 (stereo unspecified) ) = 15 µM

For CC1OC(=O)N2CCC=CC12 (stereo unspecified) the molecule record lists TGI as > 100 µM

molecule COC(=O)C(/C(=N\O)C(=O)Nc1ccc(Br)cc1)c1nc2ccccc2[nH]c1=O (stereo unspecified) , TGI observed: > 100 µM

Record CC/C(C)=C1\CCC(CN(C)C)C1=O (stereo unspecified) , field TGI: 34.4 µM

Note to self: TGI recorded for COC(=O)C#CC(N)=O was > 100 µM

Entry O/N=C1\C(=C\c2ccc3c(c2)OCCO3)CCCC1C(NO)c1ccc2c(c1)OCCO2 (stereo unspecified) , TGI reported as > 100 µM

Recorded TGI (molecule CC1=C2C3OC(=O)C(C)C3C(O)C[C@@]2(C)C(=O)CC1 (stereo partly specified) ): > 100 µM

Next molecule, please.
get_value(item= COc1ccc(/C=C2/CSC/C(=C/c3ccc(OC)c(OC)c3)C2=O)cc1OC , readout=TGI) returns 6.41 µM

* * *

System: MDA-MB-231 breast
Method: NCI tumour cell line growth inhibition, 48 h
Measured Property: TGI

Look over these answered cases.
For N=C(N)c1ccc(-c2ccc(-c3ccc(Cl)cc3Cl)s2)nc1 the compound record lists TGI as 3.26 µM

Briefly, TGI measured for Nc1c(C(=O)O)nnc2cc(Cl)ccc12 : > 100 µM

Others:
Sample CNC(=O)c1cc(-c2ccc(F)cc2)cc(-c2ccc(S(=O)(=O)N3CCCC3)cc2)c1N ; TGI observed: > 25 µM

The reported value for COc1cc(-c2nc(SC)nc3c2CCc2ccccc2-3)cc(OC)c1OC in terms of TGI is > 100 µM

Briefly, TGI measured for CC(C)(C)OC(=O)NNCC(O)COc1ccccc1 (stereo not drawn) : > 100 µM

The value of TGI measured for the compound O=c1[nH]c2ccc(C(F)(F)F)cc2nc1C(F)(F)F turned out to be 96.5 µM

Sample N#Cc1c(N2CCCC2)nsc1Nc1ccccc1 ; TGI observed: > 100 µM

Given item Cc1ccc2c(c1)Nc1ccccc1P2(=O)O , the value recorded as its TGI is > 100 µM

* * *

Test system: MALME-3M melanoma
Method: NCI tumour cell line growth inhibition, 48 h; in the data active means GI50 below about 0.43 µM; inactive means the rest
Parameter call: string, one of 1 for active, 0 for inactive

Known results for compounds:
query: Dear colleague, could you share the recorded outcome for CC[C@@H](C(=O)[C@@H](C)[C@@H](O)[C@H](C)[C@@H]1O[C@@H]([C@@H](CC)C(=O)O)CC[C@@H]1C)[C@H]1O[C@]2(C=C[C@@H](O)[C@]3(CC[C@@](C)([C@H]4CC[C@](O)(CC)[C@H](C)O4)O3)O2)[C@H](C)C[C@@H]1C when you have a moment?
result: 1

query: Called result for C1CC[N-]CC1.CC(=N\O)/C(C)=N/O.CC(=N\O)/C(C)=N/O.C[CH-]C(C)O.[Co+2]
result: 0

query: Called result for C[C@@H](C[C@H](CCO)c1ccccc1)c1ccc2ccccc2c1
result: 0

query: What was the test verdict on COc1cc2c(=O)n(CC3CCCCC3)c3c4cc[nH]c4ncc3c2cc1OC ?
result: 0

query: Kindly provide the recorded test outcome for the following compound: COC(=O)c1cc(C)[nH]c2c(C)cc3nc4ccccc4c3c12
result: 0

***
query: What did this assay record as the result for Cn1cc(-c2csc(-c3cn(C(=O)OC(C)(C)C)c4ccccc34)n2)c2cccnc21 ?
result: 0
